Examples of compounds with documented remaining binding at 1 µM follow.
- assayed system: INSRR (Homo sapiens)
- Construct: purchased Eurofins DiscoverX KINOMEscan (scanTK)
- Sequence (P14616 27-1297): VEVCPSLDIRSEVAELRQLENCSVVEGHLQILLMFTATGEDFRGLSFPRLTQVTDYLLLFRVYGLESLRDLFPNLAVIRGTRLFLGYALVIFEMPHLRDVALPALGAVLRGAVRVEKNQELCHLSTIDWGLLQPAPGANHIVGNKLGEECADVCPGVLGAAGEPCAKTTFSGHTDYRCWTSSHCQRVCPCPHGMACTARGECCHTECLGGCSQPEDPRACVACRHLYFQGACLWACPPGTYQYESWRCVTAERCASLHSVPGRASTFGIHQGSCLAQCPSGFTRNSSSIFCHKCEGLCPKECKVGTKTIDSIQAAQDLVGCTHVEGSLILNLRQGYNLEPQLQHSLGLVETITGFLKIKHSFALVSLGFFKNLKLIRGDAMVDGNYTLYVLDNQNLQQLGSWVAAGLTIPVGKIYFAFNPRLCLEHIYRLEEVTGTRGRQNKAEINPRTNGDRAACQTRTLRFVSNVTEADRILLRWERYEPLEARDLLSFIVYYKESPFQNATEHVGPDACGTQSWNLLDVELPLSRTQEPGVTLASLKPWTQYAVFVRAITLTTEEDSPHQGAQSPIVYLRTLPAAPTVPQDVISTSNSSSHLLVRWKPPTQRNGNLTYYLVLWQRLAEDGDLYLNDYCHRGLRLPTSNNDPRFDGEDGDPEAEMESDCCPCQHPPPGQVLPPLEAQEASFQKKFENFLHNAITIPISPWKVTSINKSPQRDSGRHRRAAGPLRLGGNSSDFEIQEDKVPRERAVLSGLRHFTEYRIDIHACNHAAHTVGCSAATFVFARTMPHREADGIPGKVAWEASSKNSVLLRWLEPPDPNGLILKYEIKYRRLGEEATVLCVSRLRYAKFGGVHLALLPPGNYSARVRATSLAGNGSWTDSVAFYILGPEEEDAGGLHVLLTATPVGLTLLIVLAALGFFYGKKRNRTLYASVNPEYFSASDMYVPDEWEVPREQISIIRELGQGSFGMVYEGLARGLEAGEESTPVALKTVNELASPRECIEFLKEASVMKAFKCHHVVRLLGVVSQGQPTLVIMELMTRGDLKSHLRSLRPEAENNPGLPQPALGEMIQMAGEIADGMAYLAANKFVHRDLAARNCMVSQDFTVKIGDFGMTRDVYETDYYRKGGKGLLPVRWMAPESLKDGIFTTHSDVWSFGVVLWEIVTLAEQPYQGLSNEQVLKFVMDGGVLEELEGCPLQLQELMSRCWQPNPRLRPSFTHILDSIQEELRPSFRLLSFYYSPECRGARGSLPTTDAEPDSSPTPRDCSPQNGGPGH
- experiment: KINOMEscan ScanTK
- Type: binding
- test conditions: read-out: %Control @1000nM
Return type: number; implicit unit %.

Known remaining binding at 1 µM results, listed for orientation:
compound	remaining binding at 1 µM (%)
Cc1cnc(S(C)(=O)=O)nc1N1CCCC(n2nc(-c3ccc(Oc4ccccc4)cc3)c3c(N)ncnc32)C1 (stereo not shown) [Compound 8a]	94
COC(=O)c1cnc(S(C)(=O)=O)nc1N1CCCC(n2nc(-c3ccc(Oc4ccccc4)cc3)c3c(N)ncnc32)C1 (stereo not shown) [Compound 8b]	96
CCOC(=O)c1cnc(S(C)(=O)=O)nc1N1CCC[C@@H](n2nc(-c3ccc(Oc4ccccc4)cc3)c3c(N)ncnc32)C1 [Compound 8c]	87

Query: Any idea what its remaining binding at 1 µM is? The compound is CNC(=O)c1cnc(S(C)(=O)=O)nc1N1CCCC(n2nc(-c3ccc(Oc4ccccc4)cc3)c3c(N)ncnc32)C1 (stereo not shown) [Compound 8d]
Reply: 88
